The values you see were collected from the supplement of paper PMC10307832.

system: NCI-H2347; experiment: relative viability (nuclei count vs DMSO), 5 days (fraction); higher = more cells survive; details: first compound 0.6325 µM
Provide the recorded relative viability for the entries that follow.
Give the figure by itself; no unit, no explanation.

Input line: May I ask what relative viability has been recorded for Cc1csc(=NC2CCCCC2)n1/N=C/c1ccc(O)c(O)c1O [MIM1] + CC(=O)c1c(C)c2cnc(Nc3ccc(N4CCNCC4)cn3)nc2n(C2CCCC2)c1=O [Palbociclib] (partner 0.5 µM) ?
Output line: 0.404

Input line: May I ask what relative viability has been recorded for Cc1csc(=NC2CCCCC2)n1/N=C/c1ccc(O)c(O)c1O [MIM1] + Cc1nc(Nc2ncc(C(=O)Nc3c(C)cccc3Cl)s2)cc(N2CCN(CCO)CC2)n1 [Dasatinib] (partner 0.075 µM) ?
Output line: 0.284

Input line: May I ask what relative viability has been recorded for Cc1csc(=NC2CCCCC2)n1/N=C/c1ccc(O)c(O)c1O [MIM1] + COc1cccc2cc(-c3nc([C@H]4CC[C@H](C(=O)O)CC4)n4ncnc(N)c34)[nH]c12 [OSI-027] (partner 0.5 µM) ?
Output line: 0.449

----------
test system: ChaGo-K-1; assay: relative viability (nuclei count vs DMSO), 5 days (fraction); higher = more cells survive; conditions: first compound 0.6325 µM
readout_kind: relative viability
Give the figure by itself; no unit, no explanation.

Input line: May I ask what relative viability has been recorded for Cc1csc(=NC2CCCCC2)n1/N=C/c1ccc(O)c(O)c1O [MIM1] + Nc1ncn([C@H]2C[C@H](O)[C@@H](CO)O2)c(=O)n1 [Decitabine] (partner 2 µM) ?
Output line: 0.527

Input line: May I ask what relative viability has been recorded for Cc1csc(=NC2CCCCC2)n1/N=C/c1ccc(O)c(O)c1O [MIM1] + Nc1nc2[nH]cc(CCc3ccc(C(=O)N[C@@H](CCC(=O)O)C(=O)O)cc3)c2c(=O)[nH]1 [Pemetrexed] (partner 0.2 µM) ?
Output line: 0.269

Input line: May I ask what relative viability has been recorded for Cc1csc(=NC2CCCCC2)n1/N=C/c1ccc(O)c(O)c1O [MIM1] + Cc1nc(Nc2ncc(C(=O)Nc3c(C)cccc3Cl)s2)cc(N2CCN(CCO)CC2)n1 [Dasatinib] (partner 0.075 µM) ?
Output line: 0.552

Input line: May I ask what relative viability has been recorded for CN1CCN(CCOc2cc(OC3CCOCC3)c3c(Nc4c(Cl)ccc5c4OCO5)ncnc3c2)CC1 [Saracatinib] + CC1(C)CCC(c2ccc(Cl)cc2)=C(CN2CCN(c3ccc(C(=O)NS(=O)(=O)c4ccc(N[C@H](CCN5CCOCC5)CSc5ccccc5)c(S(=O)(=O)C(F)(F)F)c4)cc3)CC2)C1 [Navitoclax] (partner 0.5 µM) ?
Output line: 1.21

----------
tested on: LOU-NH91; experiment: relative viability (nuclei count vs DMSO), 5 days (fraction); higher = more cells survive; settings: first compound 0.06325 µM
Provide the recorded relative viability for the entries that follow.

Input line: May I ask what relative viability has been recorded for CCNC(=O)c1noc(-c2cc(C(C)C)c(O)cc2O)c1-c1ccc(CN2CCOCC2)cc1 [Luminespib] + N=C(N)NC(=N)NCCc1ccccc1 [Phenformin] (partner 250 µM) ?
Output line: 0.287

Input line: May I ask what relative viability has been recorded for CCNC(=O)c1noc(-c2cc(C(C)C)c(O)cc2O)c1-c1ccc(CN2CCOCC2)cc1 [Luminespib] + Nc1nc2[nH]cc(CCc3ccc(C(=O)N[C@@H](CCC(=O)O)C(=O)O)cc3)c2c(=O)[nH]1 [Pemetrexed] (partner 0.2 µM) ?
Output line: 0.339

Input line: May I ask what relative viability has been recorded for CCNC(=O)c1noc(-c2cc(C(C)C)c(O)cc2O)c1-c1ccc(CN2CCOCC2)cc1 [Luminespib] + CC(=O)Nc1cccc(-n2c(=O)n(C3CC3)c(=O)c3c(Nc4ccc(I)cc4F)n(C)c(=O)c(C)c32)c1 [Trametinib] (partner 0.02 µM) ?
Output line: 0.417

Input line: May I ask what relative viability has been recorded for CCNC(=O)c1noc(-c2cc(C(C)C)c(O)cc2O)c1-c1ccc(CN2CCOCC2)cc1 [Luminespib] + C[C@]1(O)C[C@@H](c2nc(-c3ccc4ccc(-c5ccccc5)nc4c3)c3c(N)nccn32)C1 [Linsitinib] (partner 1 µM) ?
Output line: 0.393

Input line: May I ask what relative viability has been recorded for CCNC(=O)c1noc(-c2cc(C(C)C)c(O)cc2O)c1-c1ccc(CN2CCOCC2)cc1 [Luminespib] + Cc1nc(Nc2ncc(C(=O)Nc3c(C)cccc3Cl)s2)cc(N2CCN(CCO)CC2)n1 [Dasatinib] (partner 0.075 µM) ?
Output line: 0.258
